- MEASURED TARGET: D(4) dopamine receptor (Homo sapiens) (UniProt P21917)
- Sequence (whole entry): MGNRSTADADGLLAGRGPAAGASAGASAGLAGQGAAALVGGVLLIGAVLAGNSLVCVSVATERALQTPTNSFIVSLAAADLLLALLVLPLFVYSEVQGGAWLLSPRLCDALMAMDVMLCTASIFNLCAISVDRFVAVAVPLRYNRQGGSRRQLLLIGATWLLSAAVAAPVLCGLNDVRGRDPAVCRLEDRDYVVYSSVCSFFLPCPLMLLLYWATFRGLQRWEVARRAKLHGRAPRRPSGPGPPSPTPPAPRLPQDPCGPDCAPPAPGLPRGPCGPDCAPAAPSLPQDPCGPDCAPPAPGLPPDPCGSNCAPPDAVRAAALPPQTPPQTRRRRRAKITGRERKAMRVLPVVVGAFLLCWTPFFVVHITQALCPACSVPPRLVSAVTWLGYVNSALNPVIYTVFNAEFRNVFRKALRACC
- ASSAY CONDITIONS: Compound concentration 10 µM; call rule not given here
Outcome (select one): Yes (active), No (inactive)

>>> category_label("N#Cc1ccc(NC(=O)Nc2ccccc2Br)c2nn[nH]c12")
"No"
>>> category_label("Cc1cc(NC(=O)Nc2ccc(N(C)C)cc2)c2cc(F)cc(F)c2n1")
"No"
>>> category_label("Cc1cn2cc(CC(=O)N3CCC4(CC3)CN(Cc3ccc(-n5nccn5)cc3Cl)C4)nc2s1")
"Yes"
>>> category_label("NCCc1c[nH]c2ccc(C(N)=O)cc12")
"No"
>>> category_label("CC(C)Oc1ccccc1C(=O)Nc1ccccc1C(=O)Nc1cccc(S(=O)(=O)C(F)(F)F)c1")
"No"

(Q) Look up the recorded call for CNC[C@H](O)c1ccc(O)c(O)c1 in this test.
(A) No

(Q) Look up the recorded call for N#Cc1cccc(C(=O)Nc2cc(-c3ccccc3)nn2-c2ccccc2)c1 in this test.
(A) No

(Q) Look up the recorded call for O=c1ccc2ccc(OCCCCN3CCN(c4cccc5sccc45)CC3)cc2[nH]1 in this test.
(A) Yes

====

- MEASURED TARGET: Mu-type opioid receptor (Homo sapiens)
- ASSAY CONDITIONS: Compound concentration 10 µM
- Description: PDSP Primary Binding target: OPRM1 - Compounds are tested at 10 uM concentration, plate are incubated at room temperature in the dark for 90 minutes. Reaction are stopped by vacuum filtration onto 0.3% polyethyleneimine soaked filter mats using Filtermate harvester. Scintilation cocktail is then melted onto microwave-dried filters on a hot plate and the radio activity is counted in Microbia counter.
REPORTED PROPERTY: inhibition (%)
I only need the number, in %, no unit after it.

Solved entries:
>>> reported_result("NCCc1c[nH]c2ccc(C(N)=O)cc12")
28.8
>>> reported_result("COc1ccc(NS(=O)(=O)c2sc3ccc(Cl)cc3c2C)cc1N1CCNCC1")
56.3
>>> reported_result("CC1CCN(CC[C@H]2CCCN2S(=O)(=O)c2cccc(O)c2)CC1")
62.9
>>> reported_result("CCc1cc2c(c(CC)n1)CCC(=O)N2Cc1ccc(-c2ccccc2-c2nnn[nH]2)cc1")
51.6
>>> reported_result("Cc1csc2c(N[C@@H](C)CN3CCN(S(=O)(=O)c4ccc(Cl)c(Cl)c4)CC3)ncnc12")
14.7
>>> reported_result("CN(C(=O)Cc1ccc(Cl)c(Cl)c1)C(CN1CCCC1)c1cccc(OCC(=O)O)c1 (stereo unspecified)")
87.5
>>> reported_result("COc1cccc([C@H](O)C2CCN(CCc3ccc(F)cc3)CC2)c1OC")
8.06
>>> reported_result("CCCn1c(=O)c2[nH]c(-c3cnn(Cc4cccc(C(F)(F)F)c4)c3)nc2n(CC)c1=O")
-6.55
>>> reported_result("COc1ccc(/C=C/CCCCOc2ccc(C(=O)c3cccc(C(=O)O)c3)cc2CCC(=O)O)cc1")
22.4
>>> reported_result("O=C(O)Cn1c(C(=O)Nc2nc(-c3ccccc3Cl)cs2)cc2ccccc21")
8.9

The measured inhibition that CCCCCNC(=N)N/N=C/c1c[nH]c2ccc(OC)cc12 showed for Mu-type opioid receptor (Homo sapiens) is 63.9

The measured inhibition that COc1ccc(Br)cc1S(=O)(=O)NC(=O)/C=C/c1ccccc1Cc1ccc2ccccc2c1 showed for Mu-type opioid receptor (Homo sapiens) is 22.1

The measured inhibition that CC[C@@H]1CN2C(=O)N(C)c3nc(-c4ccccc4)[nH]c3C2=N1 showed for Mu-type opioid receptor (Homo sapiens) is -6.84

The measured inhibition that CCCCN(CC)c1nc(C)nc2c1c(C)cn2-c1c(C)cc(C)cc1C showed for Mu-type opioid receptor (Homo sapiens) is 20.1

The measured inhibition that CNc1nc(NCc2ccc(NS(C)(=O)=O)cc2Cl)cc(-c2ccccn2)n1 showed for Mu-type opioid receptor (Homo sapiens) is 14.5

Reference for the values: ChEMBL document CHEMBL5442219
